Source: paper PMC8899846

B1: wt mouse RtcB-Flag (pCMV3-mRTCB-Flag) [mouse] / PTP1B-C215S (trapping mutant; pcDNA3.1/Zeo-PTP1B [not stated] (parent)
chain 1: MSRNYNDELQFLDKINKNCWRIKKGFVPNMQVEGVFYVNDALEKLMFEELRNACRGGGVGGFLPAMKQIGNVAALPGIVHRSIGLPDVHSGYGFAIGNMAAFDMNDPEAVVSPGGVGFDINCGVRLLRTNLDESDVQPVKEQLAQAMFDHIPVGVGSKGVIPMNAKDLEEALEMGVDWSLREGYAWAEDKEHCEEYGRMLQADPNKVSPRAKKRGLPQLGTLGAGNHYAEIQVVDEIFNEYAAKKMGIDHKGQVCVMIHSGSRGLGHQVATDALVAMEKAMKRDKIIVNDRQLACARIASPEGQDYLKGMAAAGNYAWVNRSSMTFLTRQAFAKVFNTTPDDLDLHVIYDVSHNIAKVEQHVVDGKERTLLVHRKGSTRAFPPHHPLIAVDYQLTGQPVLIGGTMGTCSYVLTGTEQGMTETFGTTCHGAGRALSRAKSRRNLDFQDVLDKLADMGIAIRVASPKLVMEEAPESYKNVTDVVNTCHDAGISKKAIKLRPIAVIKG
chain 2: MEMEKEFEQIDKSGSWAAIYQDIRHEASDFPCRVAKLPKNKNRNRYRDVSPFDHSRIKLHQEDNDYINASLIKMEEAQRSYILTQGPLPNTCGHFWEMVWEQKSRGVVMLNRVMEKGSLKCAQYWPQKEEKEMIFEDTNLKLTLISEDIKSYYTVRQLELENLTTQETREILHFHYTTWPDFGVPESPASFLNFLFKVRESGSLSPEHGPVVVHSSAGIGRSGTFCLADTCLLLMDKRKDPSSVDIKKVLLEMRKFRMGLIQTADQLRFSYLAVIEGAKFIMGDSSVQDQWKELSHEDLEPPPEHIPPPPRPPKRILEPHNGKCREFFPNHQWVKEETQEDKDCPIKEEKGSPLNAAPYGIESMSQDTEVRSRVVGGSLRGAQAASPAKGEPSLPEKDEDHALSYWKPFLVNMCVATVLTAGAYLCYRFLFNSNT

Variants of: B1
assay_explanation: co-immunoprecipitation (IP: PTP1B, immunoblot RtcB), band quantification
measurement_parameters: with PTP1B-C215S (trapping mutant; pcDNA3.1/Zeo-PTP1B C215S); HEK cells, 1 μg RtcB-Flag plasmid and 1 μg PTP1B C215S plasmid; n = 3; parent: 100; read off a plot
test_readout: percent of parent (% WT)
Give bare numbers, in % WT.

Example variants with recorded percent of parent:
- mutation_annotation: "chain 1 Y306F Y316F Y475F"
  unit_name: "% WT"
  percent of parent: 38
- mutation_annotation: "chain 1 Y316F"
  unit_name: "% WT"
  percent of parent: 75

Hi team, please reply with percent of parent for each item in this list.
1. chain 1 Y475F
2. chain 1 Y306F Y316F
3. chain 1 Y306F

Ans.
[55, 37, 100]
